Hi there, I'd appreciate the recorded pEC50 for every entry that follows.
- measured on: Cannabinoid receptor 1 (Homo sapiens)
- Sequence (P21554 whole entry): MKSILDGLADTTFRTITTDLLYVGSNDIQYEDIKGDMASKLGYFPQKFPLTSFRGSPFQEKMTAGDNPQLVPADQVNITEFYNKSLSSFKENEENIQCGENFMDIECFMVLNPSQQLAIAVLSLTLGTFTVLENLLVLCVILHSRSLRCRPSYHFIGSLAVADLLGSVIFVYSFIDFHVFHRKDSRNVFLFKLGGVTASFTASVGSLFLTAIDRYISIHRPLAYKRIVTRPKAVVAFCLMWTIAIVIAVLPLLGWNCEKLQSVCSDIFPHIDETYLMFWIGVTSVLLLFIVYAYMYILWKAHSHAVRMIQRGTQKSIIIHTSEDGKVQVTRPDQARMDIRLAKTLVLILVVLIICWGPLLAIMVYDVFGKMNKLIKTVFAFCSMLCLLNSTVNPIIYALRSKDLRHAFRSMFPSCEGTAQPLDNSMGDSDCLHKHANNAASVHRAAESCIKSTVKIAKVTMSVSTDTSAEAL
- test: Agonist activity at human cloned CB1 receptor by [35S]GTPgammaS binding assay
Give bare numbers, as −log10 of the molar value.

Here's what some known entries look like.
compound	pEC50
CC1(C)[C@H]2CC[C@](C)(C2)[C@@H]1NC(=O)c1ccc(Br)c(S(=O)(=O)N2CCCC2)c1	6.66
Cc1ccc(C(=O)NC23CC4CC(CC(C4)C2)C3)cc1S(=O)(=O)N1CCOCC1	6.24
Cc1ccc(C(=O)NCC23CC4CC(CC(C4)C2)C3)cc1S(=O)(=O)N1CCOCC1	6.68
Cc1ccc(C(=O)NC(C(C)(C)C)C(C)(C)C)cc1S(=O)(=O)N1CCOCC1	6.04
CC1(C)[C@H]2CC[C@](C)(C2)[C@@H]1NC(=O)c1ccc(Br)c(S(=O)(=O)N2CCOCC2)c1	6.25
Cc1ccc(C(=O)N[C@H]2C(C)(C)[C@H]3CC[C@]2(C)C3)cc1S(=O)(=O)N1CCOCC1	6.06
Cc1ccc(C(=O)NC(C)C(C)(C)C)cc1S(=O)(=O)N1CCOCC1 (centres undefined)	5.62
Cc1ccc(C(=O)NC(C)C23CC4CC(CC(C4)C2)C3)cc1S(=O)(=O)N1CCOCC1 (centres undefined)	6.54

Hi there! I need pEC50 for each item below, if you can.
1. Cc1ccc(C(=O)N[C@@H]2C(C)(C)[C@H]3CC[C@]2(C)C3)cc1S(=O)(=O)N1CCOCC1
2. Cc1ccc(C(=O)NC2C3CC4CC(C3)CC2C4)cc1S(=O)(=O)N1CCOCC1 (centres undefined)
3. Cc1ccc(C(=O)NC2C(C)CCCC2C)cc1S(=O)(=O)N1CCOCC1 (centres undefined)
4. CC1(C)[C@H]2CC[C@](C)(C2)[C@@H]1NC(=O)c1ccc(Br)c(S(=O)(=O)N2CCCCC2)c1

1. 6.26
2. 6.57
3. 6.27
4. 6.55

Request the reported pEC50 associated with "Cc1ccc(C(=O)N[C@H]2CC3CC[C@@]2(C)C3(C)C)cc1S(=O)(=O)N1CCOCC1"
6.68
